Quick record of IC50 values for Human CARM1 (PRMT4) (Homo sapiens (Human), UniProt Q86X55).

compound	experimental endpoint	observed
CNCC(O)COc1cccc(-c2nc(NC3CCOC3=O)cc(-c3c(C)noc3C)n2)c1 (centres unmarked) [Example 23-1a]	IC50	< 0.1 µM
CNCC(O)COc1ccc(Cl)c(-c2nc(N[C@H]3CCN(C(=O)OC)C[C@H]3F)c(C)c(-c3c(C)noc3C)n2)c1 (some centres unmarked) [Example 4-3]	IC50	< 0.1 µM
CNCC(O)COc1cccc(-c2nc(-c3c(C)noc3C)cc(N(CCOC)C3CCOCC3)n2)c1 (centres unmarked) [Example 98-1a]	IC50	< 0.1 µM

Could you report IC50 for every entry in the following list?
1. CNC[C@@H](O)COc1ccc(Cl)c(-c2nc(N[C@@H]3C[C@@H](C)O[C@@H](C)C3)c(Cl)c(-c3c(C)noc3C)n2)c1 [Example 183-3]
2. CNCC(O)COc1cccc(-c2nc(-c3nc(C)cn3C)cc(N(C)C3CCOCC3)n2)c1 (centres unmarked) [Example 519-1a]
3. CNC[C@@H](O)COc1ccc(Cl)c(-c2nc(N[C@H]3COC[C@@H]3O)c(C)c(-c3c(C)noc3C)n2)c1 [Example 209-3]
4. CNC[C@@H](O)COc1ccc(Cl)c(-c2nc(N[C@H]3CCO[C@H](C)C3)c(C)c(-c3c(C)noc3C)n2)c1 [Example 196-3]
5. CNCC(O)COc1cccc(-c2nc(N(C)C3CCOCC3)cc(C3(C)CC3)n2)c1 (centres unmarked) [Example 19-1]
6. CNCC(O)COc1ccc(Cl)c(-c2nc(NC3CC(C)N(C(=O)OC)C(C)C3)c(C)c(-c3c(C)noc3C)n2)c1 (centres unmarked) [Example 46-3]

< 0.1 µM
< 0.1 µM
< 0.1 µM
< 0.1 µM
< 0.1 µM
< 0.1 µM

###

Quick record of pIC50 values for Human CARM1 (PRMT4) (Homo sapiens (Human)).
pIC50: −log10 of the molar value.

compound	measurement target	pIC50
CNCC(O)COc1cccc(-c2nc(Nc3ncc(C)cn3)cc(N(C)C3CCOCC3)n2)c1 (stereo not shown)	Human CARM1 (PRMT4) (Homo sapiens (Human))	> 7.00

Could you report pIC50 for every entry in the following list?
1. CNCC(O)COc1cccc(-c2nc(-c3cnn(CC(C)C)c3)cc(N(C)C3CCOCC3)n2)c1 (stereo not shown)
2. CNC[C@@H](O)COc1ccc(Cl)c(-c2nc(-c3c(C)noc3C)c(C)c(N3CCC4(CN(C(=O)OC)C4)C3)n2)c1
3. CNCC(O)COc1cccc(-c2nc(-c3cncnc3)cc(N(C)CCC#N)n2)c1 (stereo not shown)

> 7.00
> 7.00
> 7.00

###

So I've got a bunch of compounds here, and I need their pIC50 values.
measurement target: Human CARM1 (PRMT4) (Homo sapiens (Human), UniProt Q86X55)
Sequence (Q86X55 other isoform, or with tags, fused parts or gaps isoform Q86X55-1): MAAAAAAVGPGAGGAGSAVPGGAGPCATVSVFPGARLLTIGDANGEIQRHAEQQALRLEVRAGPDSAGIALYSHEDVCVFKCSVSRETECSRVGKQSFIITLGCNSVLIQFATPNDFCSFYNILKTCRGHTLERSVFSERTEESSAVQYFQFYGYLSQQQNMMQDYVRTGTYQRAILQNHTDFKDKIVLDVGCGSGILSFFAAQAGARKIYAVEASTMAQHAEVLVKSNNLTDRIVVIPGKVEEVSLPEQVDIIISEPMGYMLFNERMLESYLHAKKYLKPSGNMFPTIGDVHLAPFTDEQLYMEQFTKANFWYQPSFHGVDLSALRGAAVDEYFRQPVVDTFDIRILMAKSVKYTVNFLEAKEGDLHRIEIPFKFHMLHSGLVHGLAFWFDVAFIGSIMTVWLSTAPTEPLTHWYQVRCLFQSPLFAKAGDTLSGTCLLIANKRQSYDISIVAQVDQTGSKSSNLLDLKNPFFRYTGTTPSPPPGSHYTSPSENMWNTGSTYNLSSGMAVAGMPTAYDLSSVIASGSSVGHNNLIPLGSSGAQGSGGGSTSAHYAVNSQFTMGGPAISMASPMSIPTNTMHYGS
experiment: CARM1 enzyme assay on peptide substrate (3H-SAM Flashplate)
details: Biochemical potencies, classification codes; read-out: Biochem IC50
pIC50: −log10 of the molar value.

compound	pIC50
CNCC(O)COc1cccc(-c2nc(-c3cnc4ncnn4c3)cc(N(C)C3CCOCC3)n2)c1 (stereo not shown) [Example 536-1a]	> 7.00
CNCC(O)COc1cccc(-c2nc(NC3C4COCC43)c(C)c(-c3c(C)noc3C)n2)c1 (stereo not shown) [Example 212-1a]	> 7.00

Could you report pIC50 for every entry in the following list?
1. CCOC(=O)N1CCOC[C@@H]1CNc1nc(-c2cccc(OCC(O)CNC)c2)nc(-c2c(C)noc2C)c1C (stereo partly shown) [Example 206-1a]
2. CNC[C@@H](O)COc1ccc(Cl)c(-c2nc(-c3c(C)noc3C)c(C)c(C3CCOCC3)n2)c1 [Example 268-3]

1: > 7.00; 2: > 7.00

###

Quick record of pIC50 values for Human CARM1 (PRMT4) (Homo sapiens (Human), UniProt Q86X55).
pIC50: −log10 of the molar value.

These recorded examples may help you get a feel for the data.
compound	measurement target	experimental endpoint	observed
CCOC(=O)N1CCN(c2nc(-c3cccc(OCC(O)CNC)c3)nc(N[C@@H]3CCOC3)c2C)C[C@H]1C (stereo partly shown)	Human CARM1 (PRMT4) (Homo sapiens (Human), UniProt Q86X55)	pIC50	> 7.00
CNCC(O)COc1cccc(-c2nc(N[C@H]3C[C@@](C)(OC)C3)c(C)c(-c3c(C)noc3C)n2)c1 (stereo partly shown)	Human CARM1 (PRMT4) (Homo sapiens (Human), UniProt Q86X55)	pIC50	> 7.00

Could you report pIC50 for every entry in the following list?
1. CNC[C@@H](O)COc1ccc(Cl)c(-c2nc(-c3c(C)noc3C)c(Cl)c(N3Cc4nccnc4C3)n2)c1
2. CNC[C@@H](O)COc1ccc(Cl)c(-c2nc(N[C@@H]3CCOC3)c(C)c(-c3c(C)noc3C)n2)c1

1: > 7.00; 2: > 7.00

Could you report pIC50 for every entry in the following list?
1. CNCC(O)COc1cccc(-c2nc(N[C@@H]3CCOC3)c(C)c(N3CCC4(CC3)CNC(=O)C4)n2)c1 (stereo partly shown)
2. CC[C@H]1CN(c2nc(-c3cccc(OCC(O)CNC)c3)nc(-c3c(C)noc3C)c2C)CCN1S(C)(=O)=O (stereo partly shown)
3. CNCC(O)COc1cccc(-c2nc(N[C@H]3C[C@@](C)(O)C3)cc(-c3c(C)noc3C)n2)c1 (stereo partly shown)
4. CNCC(O)COc1cccc(-c2nc(NC(C)C)cc(N(C)C3CCOCC3)n2)c1 (stereo not shown)

1: > 7.00; 2: > 7.00; 3: > 7.00; 4: > 7.00

###

measurement target: Human CARM1 (PRMT4) (Homo sapiens (Human))
experiment: CARM1 enzyme assay on peptide substrate (3H-SAM Flashplate)
details: Biochemical potencies, classification codes; read-out: Biochem IC50
pIC50: −log10 of the molar value.
experimental endpoint: pIC50

These recorded examples may help you get a feel for the data.
compound	measurement target	pIC50
CNCC(O)COc1cccc(-c2nc(-c3c(C)noc3C)cc(N3CCN(C(=O)N(C)C)CC3)n2)c1 (stereo not shown) [Example 120-1a]	Human CARM1 (PRMT4) (Homo sapiens (Human))	> 7.00
CNC[C@@H](O)COc1ccc(Cl)c(-c2nc(-c3c(C)noc3C)c(C)c(N3CCC4(CC4)C3)n2)c1 [Example 234-3]	Human CARM1 (PRMT4) (Homo sapiens (Human))	> 7.00
CNCC(O)COc1cccc(-c2nc(NC3CCOC3)c(C)c(N3CCN(CC(F)F)C(C)(C)C3)n2)c1 (stereo not shown) [Example 457-1a]	Human CARM1 (PRMT4) (Homo sapiens (Human))	> 7.00

Could you report pIC50 for every entry in the following list?
1. CCN1CCN(c2cc(-c3c(C)noc3C)nc(-c3cccc(OCC(O)CNC)c3)n2)CC1 (stereo not shown) [Example 20-1a]
2. CNCC(O)COc1cccc(-c2nc(-c3c(C)noc3C)cc(N3CCN(C(=O)N(C)C)[C@H](C)C3)n2)c1 (stereo partly shown) [Example 146-1a]
3. CNCC(O)COc1cccc(-c2nc(NC3CCN(C(=O)OC)CC3)c(Cl)c(-c3c(C)noc3C)n2)c1 (stereo not shown) [Example 202-1a]
4. CNCC(O)COc1cccc(-c2nc(N[C@H]3C[C@H](C(=O)OC)C3)c(C)c(-c3c(C)noc3C)n2)c1 (stereo partly shown) [Example 221-1a]

1: > 7.00; 2: > 7.00; 3: > 7.00; 4: > 7.00

###

Test system: asymmetric di-methyl PABP1 in RKO cells
experiment: RKO methylation assay, In Cell Western (ICW) for asymmetric di-methyl PABP1
Format: cell-based
details: Cellular potencies; PABP1me2a ICW
experimental endpoint: IC50

These recorded examples may help you get a feel for the data.
compound	measurement target	IC50
CNCC(O)COc1cccc(-c2nc(-c3c(C)noc3C)c(C)c(N3CCO[C@H](CNC)C3)n2)c1 (stereo partly shown)	asymmetric di-methyl PABP1 in RKO cells	10 to 20 µM
CNC[C@@H](O)COc1cccc(-c2nc(N3CC4(CCNCC4)c4ccccc43)cc(N(C)C3CCOCC3)n2)c1	asymmetric di-methyl PABP1 in RKO cells	10 to 20 µM
CNCC(O)COc1cccc(-c2nc(NC3CCOC3=O)cc(-c3c(C)noc3C)n2)c1 (stereo not shown)	asymmetric di-methyl PABP1 in RKO cells	10 to 20 µM

# input for lookup
Dear colleague, I am looking for the recorded IC50 of the following compound: CNCC(O)COc1cccc(-c2nc(-c3c(C)noc3C)cc(N3C[C@@H]4C[C@H]3CN4C(=O)OC)n2)c1 (stereo partly shown)
5 to 10 µM

###

Quick record of IC50 values for Human CARM1 (PRMT4) (Homo sapiens (Human), UniProt Q86X55).

These recorded examples may help you get a feel for the data.
compound	IC50
CNC[C@@H](O)COc1ccc(Cl)c(-c2nc(-c3c(C)noc3C)c(C)c(N3CC4(CCN(C5CC5)C4)C3)n2)c1	< 100 nM
CNCC(O)COc1cccc(-c2nc(N[C@@H]3CCOC3)c(C)c(N3CCN(C4CC4)[C@H](C)C3)n2)c1 (stereo partly shown)	< 100 nM
CNCC(O)COc1cccc(-c2nc(-c3c(C)noc3C)cc(N3C[C@@H]4C[C@H]3CN4C(=O)OC)n2)c1 (stereo partly shown) [Example 94-1a]	< 100 nM

Dear colleague, I am looking for the recorded IC50 of the following compound: CNCC(O)COc1cccc(-c2nc(N[C@@H]3CCOC3)c(C)c(N3CCN(C)C(=O)C3)n2)c1 (stereo partly shown)
< 100 nM

Numbers sourced from patent US20230279020A9.
